Ref: ChEMBL document CHEMBL1148862

# Lookup of reported CC50 keyed by entry
assay: Cytotoxicity against MT4 cells by luciferase assay; assay type: cell-based; details: human
Numbers only here, please. The scale is µM.

For orientation, consider the following solved cases.
COc1cnc(-c2cc(Cl)ccc2F)nc1Nc1ccncc1C(=O)NC1CCN(C(=O)OC(C)(C)C)CC1: 3.9
Fc1ccc(Br)cc1-c1nc(N(CCc2ccccc2)c2ccncc2)c2nccnc2n1: 11
COc1cnc(-c2cc(Cl)ccc2F)nc1Nc1ccncc1C(=O)NCCCn1ccnc1: 8.1

Turning now to a further compound:
Exercise: Which CC50 is listed for COc1cnc(-c2cc(Cl)ccc2F)nc1Nc1ccncc1C(=O)NCCN ?
Solution: 4.7

---

assay: Drug level in Swiss SPF (CD1) mouse plasma at 20 mg/kg, po after 24 hrs; type: ADME, organism-based; parameters: dose 20 mg/kg, route oral
Readout label: concentration at 24 h

Exercise: Which concentration at 24 h is listed for O=C(NCCCN1CCCC1=O)c1cnccc1Nc1nc(-c2cc(Br)ccc2F)nc2nccnc12 ?
Solution: < 0.5 ng/mL

---

assay: Half life in Swiss SPF (CD1) mouse plasma at 20 mg/kg, po after 2 to 8 hrs; format: ADME, organism-based; set-up: dose 20 mg/kg, route oral
Readout label: half-life (h)
Numbers only here, please. The scale is h.

Exercise: Which half-life is listed for O=C(NCCCN1CCCC1=O)c1cnccc1Nc1nc(-c2cc(Br)ccc2F)nc2nccnc12 ?
Solution: 2.9

---

assay: Drug level in Swiss SPF (CD1) mouse plasma at 20 mg/kg, po after 8 hrs; assay type: ADME, organism-based; parameters: dose 20 mg/kg, route oral
Readout label: concentration at 8 h (ng/mL)
Numbers only here, please. The scale is ng/mL.

Exercise: Which concentration at 8 h is listed for O=C(NCCCN1CCCC1=O)c1cnccc1Nc1nc(-c2cc(Br)ccc2F)nc2nccnc12 ?
Solution: 5.52

---

target: Mitogen-activated protein kinase 10 (Homo sapiens, UniProt P53779); assay: Inhibition of human JNK3
Sequence (P53779 whole entry): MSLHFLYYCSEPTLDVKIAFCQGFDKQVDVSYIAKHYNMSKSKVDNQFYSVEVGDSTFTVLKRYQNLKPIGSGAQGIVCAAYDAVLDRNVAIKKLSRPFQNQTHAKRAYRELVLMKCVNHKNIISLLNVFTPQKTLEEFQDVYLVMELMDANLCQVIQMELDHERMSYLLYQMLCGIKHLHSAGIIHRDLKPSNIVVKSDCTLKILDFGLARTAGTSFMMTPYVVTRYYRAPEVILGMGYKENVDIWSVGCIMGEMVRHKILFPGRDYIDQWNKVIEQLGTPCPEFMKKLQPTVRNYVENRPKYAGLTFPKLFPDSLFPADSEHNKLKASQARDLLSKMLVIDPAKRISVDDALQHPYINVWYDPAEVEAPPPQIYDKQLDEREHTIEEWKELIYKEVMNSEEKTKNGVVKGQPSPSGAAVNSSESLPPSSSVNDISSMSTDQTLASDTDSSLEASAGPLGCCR
Readout label: IC50 (nM)
Numbers only here, please. The scale is nM.

Exercise: Which IC50 is listed for O=C(NCCCN1CCCC1=O)c1cnccc1Nc1nc(-c2cc(Br)ccc2F)nc2nccnc12 ?
Solution: 59

---

assay: Half life in Swiss SPF (CD1) mouse liver at 20 mg/kg, po after 2 to 8 hrs; format: ADME, organism-based; parameters: dose 20 mg/kg, route oral
Readout label: half-life
The reply should read as a number followed by its unit.

Exercise: Which half-life is listed for O=C(NCCCN1CCCC1=O)c1cnccc1Nc1nc(-c2cc(Br)ccc2F)nc2nccnc12 ?
Solution: 3.5 h

---

assay: Cmax in Swiss SPF (CD1) mouse plasma at 20 mg/kg, po; type: ADME, organism-based; design: dose 20 mg/kg, route oral
Readout label: Cmax (ng/mL)
Numbers only here, please. The scale is ng/mL.

Exercise: Which Cmax is listed for O=C(NCCCN1CCCC1=O)c1cnccc1Nc1nc(-c2cc(Br)ccc2F)nc2nccnc12 ?
Solution: 220

---

test: Drug level in Swiss SPF (CD1) mouse plasma at 20 mg/kg, po after 1 hr; format: ADME, organism-based; parameters: dose 20 mg/kg, route oral
Readout label: concentration at 1 h (ng/mL)
Numbers only here, please. The scale is ng/mL.

Exercise: Which concentration at 1 h is listed for O=C(NCCCN1CCCC1=O)c1cnccc1Nc1nc(-c2cc(Br)ccc2F)nc2nccnc12 ?
Solution: 166
